# maps each entry to its Ki
biological target: UniProt:P04150; experiment: Glucocorticoid Receptor Binding Assay (II), fluorescence polarization competitor kit; conditions: read-out: GR (Ki, nM) (measured in GR binding Assay II)
Only the number, expressed in nM, is required.

CNC(=O)NC(=O)C(C)(C)[C@@H]1c2ccc(-c3ccc(C(=O)N4CCCC4)cc3)nc2Oc2c(F)cccc21 4.44
CCS(=O)(=O)c1ccc(-c2ccc3c(n2)Oc2c(F)cccc2[C@@H]3C(C)(C)C(=O)NC(N)=O)cc1 0.43

Documented Ki of "CC(C)Nc1ccc(-c2ccc3c(n2)Oc2c(F)cccc2[C@@H]3C(C)(C)C(=O)NC(N)=O)cn1" : 1.13

Documented Ki of "CC(=O)NC(=O)C(C)(C)[C@@H]1c2ccc(-c3ccc(C(=O)N4CCCC4)cc3)nc2Oc2c(F)cccc21" : 3.59

---

# maps each entry to its Ki
molecular target: human full-length glucocorticoid receptor (Homo sapiens (Human)); experiment: Glucocorticoid Receptor Binding Assay (II), fluorescence polarization competitor kit; conditions: read-out: GR (Ki, nM) (measured in GR binding Assay II)
Only the number, expressed in nM, is required.

Solved entries:
Molecule	Assay Target	Ki / nM
CC(C)(C(=O)NC(N)=O)[C@@H]1c2ccc(-c3ccc(N4CCCCC4)nc3)nc2Oc2c(F)cccc21 [Example 64]	human full-length glucocorticoid receptor (Homo sapiens (Human))	1.7
CN(C)c1ccc(-c2ccc3c(n2)Oc2ccccc2[C@@H]3C(C)(C)C(=O)NC(N)=O)cn1 [Example 58]	human full-length glucocorticoid receptor (Homo sapiens (Human))	24.9
CNC(=O)NC(=O)C(C)(C)[C@@H]1c2ccc(-c3ccc(S(C)(=O)=O)cc3)nc2Oc2c(F)cccc21 [Example 13]	human full-length glucocorticoid receptor (Homo sapiens (Human))	13.6

// below: Ki requested for another molecule
Documented Ki of CC(C)Oc1ccc(-c2ccc3c(n2)Oc2ccccc2[C@@H]3C(C)(C)C(=O)NC(N)=O)cn1 [Example 65] : 0.5

---

# maps each entry to its Ki
molecular target: human full-length glucocorticoid receptor (Homo sapiens (Human), UniProt P04150); assay: Glucocorticoid Receptor Binding Assay (II), fluorescence polarization competitor kit; settings: read-out: GR (Ki, nM) (measured in GR binding Assay II)
Sequence (P04150 whole entry): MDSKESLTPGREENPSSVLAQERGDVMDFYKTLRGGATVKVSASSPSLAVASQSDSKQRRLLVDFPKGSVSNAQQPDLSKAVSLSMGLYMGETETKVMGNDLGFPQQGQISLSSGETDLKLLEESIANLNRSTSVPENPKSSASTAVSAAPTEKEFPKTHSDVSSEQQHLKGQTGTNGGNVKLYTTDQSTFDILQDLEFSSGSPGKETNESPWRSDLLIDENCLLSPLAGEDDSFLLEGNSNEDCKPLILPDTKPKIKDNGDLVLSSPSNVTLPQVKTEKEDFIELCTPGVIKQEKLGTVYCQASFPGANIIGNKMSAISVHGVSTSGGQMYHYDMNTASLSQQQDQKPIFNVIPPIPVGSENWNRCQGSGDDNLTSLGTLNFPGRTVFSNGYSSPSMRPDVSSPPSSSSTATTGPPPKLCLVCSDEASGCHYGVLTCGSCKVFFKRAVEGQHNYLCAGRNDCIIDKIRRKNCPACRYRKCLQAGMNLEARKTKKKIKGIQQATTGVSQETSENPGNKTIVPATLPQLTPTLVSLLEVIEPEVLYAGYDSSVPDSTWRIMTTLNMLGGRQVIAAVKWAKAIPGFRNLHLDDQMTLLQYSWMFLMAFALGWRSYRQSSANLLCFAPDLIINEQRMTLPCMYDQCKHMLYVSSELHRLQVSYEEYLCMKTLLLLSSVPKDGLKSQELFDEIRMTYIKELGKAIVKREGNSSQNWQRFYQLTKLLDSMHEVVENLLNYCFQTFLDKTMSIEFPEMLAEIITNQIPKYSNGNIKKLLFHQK

CC(C)(C(=O)NC(N)=O)[C@H]1c2ccccc2Oc2nc(-c3ccc(C(=O)N4CCCC4)c(F)c3)ccc21 1.34 nM
CC(=O)Nc1ccc(-c2ccc3c(n2)Oc2ccccc2[C@@H]3C(C)(C)C(=O)NC(N)=O)cn1 2.66 nM
CCC(=O)NC(=O)C(C)(C)[C@@H]1c2ccc(Cl)nc2Oc2c(F)cccc21 42.7 nM
CC(C)(C(=O)NC(N)=O)C1c2ccccc2Oc2ccccc21 32 nM
CNC(=O)NC(=O)C(C)(C)[C@@H]1c2ccc(-c3ccc(S(=O)(=O)C(C)C)cc3)nc2Oc2c(F)cccc21 5.26 nM

Documented Ki of "CC(C)(C(=O)NC(N)=O)[C@@H]1c2ccc(-c3ccncc3)nc2Oc2c(F)cccc21" : 1.72 nM

Documented Ki of "COc1ccc(CNC(=O)NC(=O)C(C)(C)[C@@H]2c3ccc(-c4ccc(C(C)(C)O)cc4)nc3Oc3c(F)cccc32)cc1" : 3.33 nM

---

target: human full-length glucocorticoid receptor (Homo sapiens (Human), UniProt P04150); assay: Glucocorticoid Receptor Binding Assay (II), fluorescence polarization competitor kit; details: read-out: GR (Ki, nM) (measured in GR binding Assay II)
Property Measured: Ki (nM)
Only the number, expressed in nM, is required.

Solved entries:
Molecule	Property Measured	Display Unit	Data Value
CC(=O)Nc1ccc(-c2ccc3c(n2)Oc2c(F)cccc2[C@@H]3C(C)(C)C(=O)NC(N)=O)cn1 [Example 61]	Ki	nM	4.26
CC(C)(C(=O)NC(N)=O)[C@H]1c2ccccc2Oc2nc(-c3ccc(C(=O)N4CCC(F)(F)C4)c(Cl)c3)ccc21 [Example 53]	Ki	nM	369
CCS(=O)(=O)c1ccc(-c2ccc3c(n2)Oc2c(F)cccc2[C@@H]3C(C)(C)C(=O)NC(=O)NC)cc1 [Example 12]	Ki	nM	5.04

Documented Ki of CNC(=O)NC(=O)C(C)(C)[C@@H]1c2ccc(-c3cnc(N4CCN(C)CC4)nc3)nc2Oc2c(F)cccc21 [Example 18] : 239

---

Test system: AP-1 induced transcriptional activity
Assay: Cellular transrepressional assay (AP-1 luciferase reporter, PMA-activated A549 cell)
Format: cell-based
Conditions: Homo sapiens; A549 cell, 10 ng/ml PMA, 7 hours; read-out: AP-1 (EC50, nM) (measured in cellular transrepression assay)
Description: To measure the ability of test molecules to inhibit AP-1 induced transcriptional activity we utilized an A549 cell which was stably transfected with a plasmid containing 7×AP-1 DNA binding sites (pAP-1-Luc plasmid, Stratagene Co., La Jolla, Calif.) followed by the gene for luciferase. […] After a 10 minute incubation of luciferase reagent with cells, luminescence was measured in a TOPCOUNT® luminescence counter. […] Test molecules were analyzed in the concentration range from 0.1 nM to 40 μM. […]
Property Measured: EC50 (nM)
Only the number, expressed in nM, is required.

Solved entries:
Molecule	EC50 (nM)
CCC(=O)NC(=O)C(C)(C)[C@@H]1c2ccc(Cl)nc2Oc2c(F)cccc21 [Example 1]	5000
CCC(=O)NC(=O)C(C)(C)[C@@H]1c2ccc(-c3ccc(C(=O)N4CCOCC4)cc3)nc2Oc2c(F)cccc21 [Example 5]	180
CC(C)(O)c1ccc(-c2ccc3c(n2)Oc2c(F)cccc2[C@@H]3C(C)(C)C(=O)NC(N)=O)cc1 [Example 69]	2.03

// below: EC50 requested for another molecule
Documented EC50 of CC(C)NC(=O)NC(=O)C(C)(C)[C@@H]1c2ccc(-c3ccc(C(=O)N4CCOCC4)cc3)nc2Oc2c(F)cccc21 [Example 19] : 199

---

system: AP-1 induced transcriptional activity; assay: Cellular transrepressional assay (AP-1 luciferase reporter, PMA-activated A549 cell); format: cell-based; settings: Homo sapiens; A549 cell, 10 ng/ml PMA, 7 hours; read-out: AP-1 (EC50, nM) (measured in cellular transrepression assay)
Property Measured: EC50 (nM)
Only the number, expressed in nM, is required.

CC(C)(C(=O)NC(=O)NCCO)[C@@H]1c2ccc(-c3ccc(C(=O)N4CCOCC4)cc3)nc2Oc2c(F)cccc21 786
CNC(=O)NC(=O)C(C)(C)[C@@H]1c2ccc(-c3ccc(N4CCOCC4)nc3)nc2Oc2c(F)cccc21 5000
CC(C)(O)c1ccc(-c2ccc3c(n2)Oc2c(F)cccc2[C@@H]3C(C)(C)C(=O)NC(=O)NCCO)cc1 84.6
CN1CCN(c2ncc(-c3ccc4c(n3)Oc3c(F)cccc3[C@@H]4C(C)(C)C(=O)NC(N)=O)cn2)CC1 93.6
CC(C)(C(=O)NC(N)=O)[C@@H]1c2ccc(-c3ccc(C(=O)N4CCC4)cc3)nc2Oc2c(F)cccc21 4.22

Documented EC50 of "CC(=O)NC(=O)C(C)(C)[C@H]1c2ccccc2Oc2nc(-c3ccc(C(=O)N4CCOCC4)cc3)ccc21" : 6.65

Documented EC50 of "COC(=O)NC(=O)C(C)(C)[C@@H]1c2ccc(-c3ccc(C(=O)OC)cc3)nc2Oc2c(F)cccc21" : 5000

---

biological target: human full-length glucocorticoid receptor (Homo sapiens (Human), UniProt P04150); test: Glucocorticoid Receptor Binding Assay (II), fluorescence polarization competitor kit; details: read-out: GR (Ki, nM) (measured in GR binding Assay II)
# maps each entry to its Ki
Only the number, expressed in nM, is required.

Molecule	Assay Target	Ki [nM]
CC(C)(C(=O)NC(N)=O)[C@@H]1c2ccc(-c3ccc(NC4CC4)nc3)nc2Oc2c(F)cccc21	human full-length glucocorticoid receptor (Homo sapiens (Human), UniProt P04150)	1.15
CC(C)(C(=O)NC(N)=O)[C@@H]1c2ccc(-c3ccc(C(=O)O)nc3)nc2Oc2c(F)cccc21	human full-length glucocorticoid receptor (Homo sapiens (Human), UniProt P04150)	10.8
CN1CCN(c2ncc(-c3ccc4c(n3)Oc3c(F)cccc3[C@@H]4C(C)(C)C(=O)NC(N)=O)cn2)CC1	human full-length glucocorticoid receptor (Homo sapiens (Human), UniProt P04150)	25.9
CC(C)(C(=O)NC(N)=O)[C@@H]1c2ccc(-c3ccc(C(=O)N4CCCC4)cc3)nc2Oc2c(F)cccc21	human full-length glucocorticoid receptor (Homo sapiens (Human), UniProt P04150)	0.72
CC(C)Oc1ccc(-c2ccc3c(n2)Oc2ccccc2[C@@H]3C(C)(C)C(=O)NC(N)=O)cc1	human full-length glucocorticoid receptor (Homo sapiens (Human), UniProt P04150)	0.8
CC(C)(O)c1ccc(-c2ccc3c(n2)Oc2ccccc2[C@@H]3C(C)(C)C(=O)NC(N)=O)cc1	human full-length glucocorticoid receptor (Homo sapiens (Human), UniProt P04150)	1.19

Documented Ki of "CCCCc1ccc(-c2ccc3c(n2)Oc2c(F)cccc2[C@@H]3C(C)(C)C(=O)NC(N)=O)cc1" : 0.91

Documented Ki of "CNC(=O)NC(=O)C(C)(C)[C@@H]1c2ccc(-c3ccc(OC(C)C)nc3)nc2Oc2c(F)cccc21" : 9.68

Documented Ki of CCC(C)c1ccc(-c2ccc3c(n2)Oc2ccccc2[C@@H]3C(C)(C)C(=O)NC(N)=O)cc1 (stereo partly drawn) : 1.74

Documented Ki of "CC(C)(C(=O)NC(N)=O)[C@@H]1c2ccc(-c3ccc(S(C)(=O)=O)cc3)nc2Oc2c(F)cccc21" : 0.59
